# Test system: BDF1 mice, P388 leukemia ip, median survival T/C
# testDescription: NCI In Vivo Anticancer Drug Screen. Data for tumor model P388 Leukemia (intraperitoneal) in B6D2F1 (BDF1) mice
# studyConditions: endpoint: median survival time; dose: 50.0 mg/kg/injection; schedule: Q01DX009 (ip); vehicle: Klucel (hydroxypropylcellulose) (HPC)
Inconclusive results and toxic doses are left out. How the source made its calls: active means survival T/C of 150% or more; inactive means T/C below 125% in these data.
// one of label 1 for active, label 0 for inactive, no free text

I'd appreciate the recorded outcome for OCc1cc(Cl)ccc1O from this test.
label 0

I'd appreciate the recorded outcome for O=C(NC(CSC(=O)c1ccccc1)C(=O)O)OCc1ccccc1 (centres undefined) from this test.
label 0

I'd appreciate the recorded outcome for CC[C@@H]1C[C@@H]2CN3CCc4c([nH]c5ccc(OC)cc45)C(C(=O)OC)(C2)C13 from this test.
label 0

I'd appreciate the recorded outcome for O=C(NN=C1CCCCC1)c1ccccc1 from this test.
label 0

I'd appreciate the recorded outcome for COC1OC(COS(=O)(=O)c2ccc(C)cc2)C2OC(C)(C)OC12 (centres undefined) from this test.
label 0

I'd appreciate the recorded outcome for CCOC(=O)c1c(C)c2c(n1C)CCc1cn[nH]c1-2 from this test.
label 0

I'd appreciate the recorded outcome for CC1(O)CCC2C3CCC4=CC(=O)CCC4C3CCC21C (centres undefined) from this test.
label 0

I'd appreciate the recorded outcome for CS(=O)(=O)OCCCOS(C)(=O)=O from this test.
label 0

I'd appreciate the recorded outcome for CC(=O)O[C@H]1CC[C@H]2[C@@H]3CC[C@H]4CC=C(C#N)C[C@]4(C)[C@H]3CC[C@]12C from this test.
label 0

I'd appreciate the recorded outcome for O=[N+]([O-])c1[nH]cnc1Br from this test.
label 0

I'd appreciate the recorded outcome for C=C1C(=O)OC2/C=C(\CO)C(OC(C)=O)CC(O)/C(C)=C/C(OC(=O)C(C)CC)C12 (centres undefined) from this test.
label 0

I'd appreciate the recorded outcome for CC(C)=CCc1c(O)ccc(C(=O)/C=C/c2ccccc2)c1O from this test.
label 0

I'd appreciate the recorded outcome for O=C(N/N=C/c1ccc(Cl)cc1Cl)c1ccccc1 from this test.
label 0

I'd appreciate the recorded outcome for O=C(Nc1ccc(Cl)cc1)c1ccccc1 from this test.
label 0

I'd appreciate the recorded outcome for Cc1cccc(N=P(c2ccccc2)(c2ccccc2)c2ccccc2)c1 from this test.
label 0

I'd appreciate the recorded outcome for CC(=O)NNc1ccccc1 from this test.
label 0

I'd appreciate the recorded outcome for O=CNC(Cc1ccc(N(CCCl)CCCl)cc1)C(=O)O (centres undefined) from this test.
label 1

I'd appreciate the recorded outcome for O=C(O)COc1ccccc1OCC(=O)O from this test.
label 0

I'd appreciate the recorded outcome for CC(=O)Nc1cccc(Cl)c1C from this test.
label 0

I'd appreciate the recorded outcome for O=C1NC(c2ccccc2)(c2ccccc2)C(=O)N1SC(Cl)(Cl)Cl from this test.
label 0

I'd appreciate the recorded outcome for O=C(NNc1ccccc1)OCc1ccccc1 from this test.
label 0

I'd appreciate the recorded outcome for CCSc1nc2ccc(Nn3nnnc3-c3ccccc3)cc2s1 from this test.
label 0

I'd appreciate the recorded outcome for CCCCCCCCCCCCN(CCC(=O)O)S(=O)(=O)O from this test.
label 0

I'd appreciate the recorded outcome for O=[N+]([O-])c1cc([N+](=O)[O-])c2nn(-c3ccccc3)[n+]([O-])c2c1 from this test.
label 0

I'd appreciate the recorded outcome for NNC(=O)c1c[nH]c2ccccc2c1=O from this test.
label 0

I'd appreciate the recorded outcome for CC(C)(O)/C=C/C(=O)[C@](C)(O)[C@H]1[C@H](O)C[C@@]2(C)[C@@H]3CC=C4[C@@H](C=C(O)C(=O)C4(C)C)[C@]3(C)C(=O)C[C@]12C from this test.
label 0

I'd appreciate the recorded outcome for CCC(C)(O)C#CC#CC(C)(O)CC (centres undefined) from this test.
label 0

I'd appreciate the recorded outcome for C/C(=C\COc1ccc2ccc(=O)oc2c1)C1=CC(=O)C(C)(C)O1 from this test.
label 0

I'd appreciate the recorded outcome for CCOC(=O)C(C)Cl (centres undefined) from this test.
label 0

###

# Tested on: BDF1 mice, P388 leukemia ip, median survival T/C
# testDescription: NCI In Vivo Anticancer Drug Screen. Data for tumor model P388 Leukemia (intraperitoneal) in B6D2F1 (BDF1) mice
# studyConditions: endpoint: median survival time; dose: 200.0 mg/kg/injection; schedule: Q01DX001 (ip); vehicle: saline sonified; higher = longer survival
Toxic doses and inconclusive results are not listed.
Exercise: for every item that follows, state its recorded T/C.

For CCCCCCCCCOc1ccc(C=O)cc1OC , what is its reported T/C?
90 % of control

For O=C1NC(=O)N(c2ccccc2)C(=O)/C1=C/c1ccccc1 , what is its reported T/C?
100 % of control

For O=Cc1nc2ccccc2c2ccccc12 , what is its reported T/C?
100 % of control

For O=C1OCC2SC(c3ccccc3)NC12 (stereo not given) , what is its reported T/C?
113 % of control

For COC(=O)CCCc1cc(O)c2c(c1O)C(=O)c1ccccc1C2=O , what is its reported T/C?
100 % of control

###

# Test system: BDF1 mice, P388 leukemia ip, median survival T/C
# testDescription: NCI In Vivo Anticancer Drug Screen. Data for tumor model P388 Leukemia (intraperitoneal) in B6D2F1 (BDF1) mice
# studyConditions: endpoint: median survival time; dose: 400.0 mg/kg/injection; schedule: Q01DX001 (ip); vehicle: saline; higher = longer survival
Inconclusive results and toxic doses are left out.
readout: T/C

Test system BDF1 mice, P388 leukemia ip, median survival T/C; read-out T/C; what value for CC(=O)N(O)CCCC1NC(=O)C(CCCN(O)C(C)=O)NC1=O (stereo not given) ?
95 % of control

Test system BDF1 mice, P388 leukemia ip, median survival T/C; read-out T/C; what value for O=C(NCCc1c[nH]c2ccccc12)c1cccnc1 ?
95 % of control

Test system BDF1 mice, P388 leukemia ip, median survival T/C; read-out T/C; what value for O=S1(=O)CC(S(=O)(=O)O)C(S(=O)(=O)O)C1 (stereo not given) ?
108 % of control

Test system BDF1 mice, P388 leukemia ip, median survival T/C; read-out T/C; what value for O=C1c2ccccc2C(=O)c2cc(S(=O)(=O)Cl)ccc21 ?
90 % of control

Test system BDF1 mice, P388 leukemia ip, median survival T/C; read-out T/C; what value for C(=N\n1cnnc1)/c1ccc(/C=N/n2cnnc2)cc1 ?
95 % of control

###

# Test system: BDF1 mice, P388 leukemia ip, median survival T/C
# testDescription: NCI In Vivo Anticancer Drug Screen. Data for tumor model P388 Leukemia (intraperitoneal) in B6D2F1 (BDF1) mice
# studyConditions: endpoint: median survival time; dose: 50.0 mg/kg/injection; schedule: Q01DX009 (ip); vehicle: other; higher = longer survival
# Procedure: The antitumor activity of compounds was measured in mice bearing transplantable tumors. Survival or tumor size were measured and the results are expressed as the measurement made in the treated group (T) divided by the measurement made in the vehicle treated control group (C). The tumor model used in this assay is P388 Leukemia (intraperitoneal) in B6D2F1 (BDF1) mice
Toxic doses and inconclusive results are not listed.
Exercise: for every item that follows, state its recorded T/C.

For CCOC(=O)C(=CN(C)c1ccc([N+](=O)[O-])cc1)C(=O)OCC , what is its reported T/C?
100 % of control

For Cc1cc(C)c(NC(=O)N(CCCl)N=O)cc1C , what is its reported T/C?
122 % of control

For C=CCCCCCCCCCCCCCCCC (tested in a mixture with another compound) , what is its reported T/C?
113 % of control

For CC(=O)OC1CC2CCCCC21 (centres undefined) , what is its reported T/C?
116 % of control

###

# System: BDF1 mice, P388 leukemia ip, median survival T/C
# testDescription: NCI In Vivo Anticancer Drug Screen. Data for tumor model P388 Leukemia (intraperitoneal) in B6D2F1 (BDF1) mice
# studyConditions: endpoint: median survival time; dose: 6.25 mg/kg/injection; schedule: Q01DX009 (ip); vehicle: saline with Tween-80; higher = longer survival
Toxic doses and inconclusive results are not listed.
Exercise: for every item that follows, state its recorded T/C.

For COc1ccc([C@@H]2c3cc4c(cc3C[C@H]3COC(=O)[C@@H]32)OCO4)cc1OC , what is its reported T/C?
104 % of control

For NC1=CC(=O)c2ccccc2C1=O , what is its reported T/C?
101 % of control

For CCCC[S+](CCCC)CC(=O)c1ccc(-c2ccccc2)cc1 , what is its reported T/C?
106 % of control

For [Au].c1ccc(-c2nn[nH]n2)cc1.c1ccc(P(c2ccccc2)c2ccccc2)cc1 , what is its reported T/C?
104 % of control

For CCCCCCCCCCCCCC(C)NCc1ccccc1 (stereo not drawn) , what is its reported T/C?
100 % of control

For O=c1[nH]ncc2[nH]cnc12 , what is its reported T/C?
98 % of control

For CSc1nc2n(Cc3c[nH]c(=O)[nH]c3=O)cc(C)cc-2c(=O)n1 , what is its reported T/C?
101 % of control

For O=c1[nH]cnc2[nH]ccc12 , what is its reported T/C?
99 % of control
